Each entry below carries its recorded FGFR1 % inhibition @ 1 uM.
Biological target: recombinant human baculovirus-expressed FGFR1 cytoplasmic domain (Homo sapiens)
Construct: recombinant human baculovirus-expressed FGFR1 cytoplasmic domain; host or cells: baculovirus expression system
Sequence (P11362 398-822 limits assumed): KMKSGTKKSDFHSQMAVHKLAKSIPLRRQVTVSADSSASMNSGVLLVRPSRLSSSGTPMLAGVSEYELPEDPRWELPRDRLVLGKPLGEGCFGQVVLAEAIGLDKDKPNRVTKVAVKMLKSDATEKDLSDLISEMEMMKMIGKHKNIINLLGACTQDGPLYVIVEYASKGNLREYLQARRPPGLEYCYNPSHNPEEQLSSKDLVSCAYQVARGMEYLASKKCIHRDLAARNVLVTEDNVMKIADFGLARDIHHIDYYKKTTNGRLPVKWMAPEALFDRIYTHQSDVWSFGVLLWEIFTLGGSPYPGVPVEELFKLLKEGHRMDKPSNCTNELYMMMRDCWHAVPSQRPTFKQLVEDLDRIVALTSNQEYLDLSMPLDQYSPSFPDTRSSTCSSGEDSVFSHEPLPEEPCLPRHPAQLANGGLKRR
Assay: FGFR1 kinase inhibition assay (ELISA-based, time-resolved fluorescence)
Assay type: biochemical
Settings: 1 uM compound; 20 μM ATP

{"compound": "Cc1c(I)[nH]c(C=C2C(=O)NN=C2c2ccoc2)c1I [Compound 6]", "assayed-target": "recombinant human baculovirus-expressed FGFR1 cytoplasmic domain (Homo sapiens)", "FGFR1 % inhibition @ 1 uM (%)": 20}
{"compound": "N#CCCn1cc(C=C2C(=O)NN=C2c2ccoc2)c2ccccc21 [Compound 65]", "assayed-target": "recombinant human baculovirus-expressed FGFR1 cytoplasmic domain (Homo sapiens)", "FGFR1 % inhibition @ 1 uM (%)": 21}
{"compound": "Cc1cccc2c(C=C3C(=O)NN=C3c3ccn(C)c3)c[nH]c12 [Compound 34]", "assayed-target": "recombinant human baculovirus-expressed FGFR1 cytoplasmic domain (Homo sapiens)", "FGFR1 % inhibition @ 1 uM (%)": 34}
{"compound": "N#CCCn1cc(C=C2C(=O)NN=C2c2cccs2)c2ccccc21 [Compound 66]", "assayed-target": "recombinant human baculovirus-expressed FGFR1 cytoplasmic domain (Homo sapiens)", "FGFR1 % inhibition @ 1 uM (%)": 29}
{"compound": "Cn1ccc(C2=NNC(=O)C2=Cc2c[nH]c3ccc(Cl)cc23)c1 [Compound 35]", "assayed-target": "recombinant human baculovirus-expressed FGFR1 cytoplasmic domain (Homo sapiens)", "FGFR1 % inhibition @ 1 uM (%)": 29}
{"compound": "O=C1NN=C(c2ccco2)C1=Cc1c[nH]c2ccc(OCc3ccccc3)cc12 [Compound 43]", "assayed-target": "recombinant human baculovirus-expressed FGFR1 cytoplasmic domain (Homo sapiens)", "FGFR1 % inhibition @ 1 uM (%)": 26}
{"compound": "CCc1c(C=C2C(=O)NN=C2c2ccoc2)[nH]c(C(=O)OCc2ccccc2)c1C [Compound 5]", "assayed-target": "recombinant human baculovirus-expressed FGFR1 cytoplasmic domain (Homo sapiens)", "FGFR1 % inhibition @ 1 uM (%)": "−2"}
{"compound": "Cn1cccc1C1=NNC(=O)C1=Cc1c[nH]c2ccc(F)cc12 [Compound 56]", "assayed-target": "recombinant human baculovirus-expressed FGFR1 cytoplasmic domain (Homo sapiens)", "FGFR1 % inhibition @ 1 uM (%)": 30}

* * *

Form field: inhibition at 1 µM (one value per entry).
Biological target: recombinant human baculovirus-expressed VEGFR1 cytoplasmic domain (Homo sapiens, UniProt P17948)
Construct: recombinant human baculovirus-expressed VEGFR1 cytoplasmic domain; host or cells: baculovirus expression system
Sequence (P17948 781-1338 limits assumed): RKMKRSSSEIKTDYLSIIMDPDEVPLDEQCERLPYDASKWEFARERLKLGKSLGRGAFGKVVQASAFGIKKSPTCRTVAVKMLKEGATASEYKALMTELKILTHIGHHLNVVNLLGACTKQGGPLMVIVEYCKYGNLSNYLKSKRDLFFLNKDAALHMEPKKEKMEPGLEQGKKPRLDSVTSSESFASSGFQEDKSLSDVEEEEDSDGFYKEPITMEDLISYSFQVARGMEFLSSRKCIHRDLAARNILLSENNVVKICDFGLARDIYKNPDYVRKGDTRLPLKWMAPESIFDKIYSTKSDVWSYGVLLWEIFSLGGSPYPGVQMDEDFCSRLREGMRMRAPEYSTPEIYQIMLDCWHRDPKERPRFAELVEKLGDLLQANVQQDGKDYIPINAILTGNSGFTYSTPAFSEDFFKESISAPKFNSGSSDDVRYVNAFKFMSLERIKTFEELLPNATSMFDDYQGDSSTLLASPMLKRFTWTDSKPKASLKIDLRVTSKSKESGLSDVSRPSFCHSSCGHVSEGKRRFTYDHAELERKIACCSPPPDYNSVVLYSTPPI
Experiment: VEGFR1 kinase inhibition assay (ELISA-based, time-resolved fluorescence)
Assay type: biochemical
Details: 1 uM compound; 30 μM ATP; read-out: VEGFR-1 kinase % inhibition @ 1 uM
Protocol: Inhibition of Vascular Endothelial Growth Factor Receptor-1 Kinase Activity The VEGFR1 kinase activity assay utilizes an ELISA-based format in a 96-well FluoroNUNC Maxisorp plate with a time-resolved fluorescence readout. The plate was coated with 100 μl/well of substrate solution (recombinant human PLC-γ/GST) at a concentration of 40 μg/ml in Tris buffered saline (TBS). […] After 5 min, the fluorescence of the resulting solution was measured using the BMG Fluostar (Model # 403).

{"smiles-code": "O=C1NN=C(c2nccs2)C1=Cc1c[nH]c2ccccc12", "units-label": "%", "inhibition at 1 µM": 66}
{"smiles-code": "Cc1cc(C)c(C=C2C(=O)NN=C2c2cnccn2)[nH]1", "units-label": "%", "inhibition at 1 µM": 74}
{"smiles-code": "Cc1cc(C)c(C=C2C(=O)NN=C2c2nccs2)[nH]1", "units-label": "%", "inhibition at 1 µM": 64}

* * *

Biological target: baculoviral GST-MLK3KD (Homo sapiens, UniProt Q16584)
Construct: 2 μg/ml of baculoviral GST-MLK3KD; GST (N); host or cells: baculovirus expression system
Sequence (Q16584 117-379 limits assumed): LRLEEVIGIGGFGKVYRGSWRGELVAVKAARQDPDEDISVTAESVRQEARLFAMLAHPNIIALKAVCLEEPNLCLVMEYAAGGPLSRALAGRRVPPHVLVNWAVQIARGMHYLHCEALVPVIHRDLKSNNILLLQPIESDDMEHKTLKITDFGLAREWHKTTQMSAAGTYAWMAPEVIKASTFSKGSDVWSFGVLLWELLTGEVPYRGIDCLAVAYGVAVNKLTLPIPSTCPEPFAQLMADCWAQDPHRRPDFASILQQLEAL
Test: Mixed Lineage Kinase-3 inhibition assay (Millipore Multiscreen plate, 32P)
Type: biochemical
Conditions: 1 uM compound; 100 μM ATP
Measured MLK-3 Kinase % inhibition @ 1 uM values are reported for all entries that follow.

{"smiles-code": "O=C1NN=C(c2ccco2)C1=Cc1ncc[nH]1", "MLK-3 Kinase % inhibition @ 1 uM (%)": 0}
{"smiles-code": "CC(C)Cn1cc(C=C2C(=O)NN=C2c2nccs2)c2ccccc21", "MLK-3 Kinase % inhibition @ 1 uM (%)": 5}
{"smiles-code": "Cc1cc(C)c(C=C2C(=O)NN=C2c2ccn(C)c2)[nH]1", "MLK-3 Kinase % inhibition @ 1 uM (%)": 69}
{"smiles-code": "Cc1cc(C)c(C=C2C(=O)NN=C2c2csc(-c3ccccc3)n2)[nH]1", "MLK-3 Kinase % inhibition @ 1 uM (%)": 22}
{"smiles-code": "Cn1ccc(C2=NNC(=O)C2=Cc2c[nH]c3ccc(Cl)cc23)c1", "MLK-3 Kinase % inhibition @ 1 uM (%)": 34}
{"smiles-code": "O=C1NN=C(c2ccco2)C1=Cc1c[nH]c2ccc(F)cc12", "MLK-3 Kinase % inhibition @ 1 uM (%)": 31}
{"smiles-code": "Cn1ccc(C2=NNC(=O)C2=Cc2c[nH]c3cccc(OCc4ccccc4)c23)c1", "MLK-3 Kinase % inhibition @ 1 uM (%)": 49}
{"smiles-code": "Cc1cc(C)c(C=C2C(=O)NN=C2c2cc(-c3ccc(Cl)cc3)oc2C)[nH]1", "MLK-3 Kinase % inhibition @ 1 uM (%)": 10}
{"smiles-code": "Cc1nc[nH]c1C=C1C(=O)NN=C1c1ccco1", "MLK-3 Kinase % inhibition @ 1 uM (%)": 12}
{"smiles-code": "Cc1cccc2c(C=C3C(=O)NN=C3c3ccn(C)c3)c[nH]c12", "MLK-3 Kinase % inhibition @ 1 uM (%)": 32}
{"smiles-code": "Cn1cc(C=C2C(=O)NN=C2c2cccs2)c2ccccc21", "MLK-3 Kinase % inhibition @ 1 uM (%)": 78}
{"smiles-code": "O=C1NN=C(c2ccoc2)C1=Cc1cn(Cc2ccccc2)c2ccccc12", "MLK-3 Kinase % inhibition @ 1 uM (%)": 20}
{"smiles-code": "Cc1cc(C)c(C=C2C(=O)NN=C2c2cc(C)oc2C)[nH]1", "MLK-3 Kinase % inhibition @ 1 uM (%)": 25}
{"smiles-code": "O=C1NN=C(c2ccoc2)C1=Cc1ncc[nH]1", "MLK-3 Kinase % inhibition @ 1 uM (%)": "−17"}
{"smiles-code": "Cc1cc(C)c(C=C2C(=O)NN=C2C2c3ccccc3Oc3ccccc32)[nH]1", "MLK-3 Kinase % inhibition @ 1 uM (%)": "−11"}
{"smiles-code": "O=C1NN=C(c2nccs2)C1=Cc1cn(CCOCc2ccccc2)c2ccccc12", "MLK-3 Kinase % inhibition @ 1 uM (%)": 28}
{"smiles-code": "Cc1cccc2c(C=C3C(=O)NN=C3c3ccco3)c[nH]c12", "MLK-3 Kinase % inhibition @ 1 uM (%)": 31}
{"smiles-code": "O=C1NN=C(c2nccs2)C1=Cc1cn(Cc2ccccc2)c2ccccc12", "MLK-3 Kinase % inhibition @ 1 uM (%)": 15}
{"smiles-code": "COC(=O)c1ccc2c(C=C3C(=O)NN=C3c3ccco3)c[nH]c2c1", "MLK-3 Kinase % inhibition @ 1 uM (%)": 15}

* * *

Target: recombinant human baculoviral VEGFR2 cyctoplasmic domain (Homo sapiens)
Construct: recombinant human baculoviral VEGFR2 cyctoplasmic domain; host or cells: baculovirus expression system
Sequence (P35968 786-1356 limits assumed): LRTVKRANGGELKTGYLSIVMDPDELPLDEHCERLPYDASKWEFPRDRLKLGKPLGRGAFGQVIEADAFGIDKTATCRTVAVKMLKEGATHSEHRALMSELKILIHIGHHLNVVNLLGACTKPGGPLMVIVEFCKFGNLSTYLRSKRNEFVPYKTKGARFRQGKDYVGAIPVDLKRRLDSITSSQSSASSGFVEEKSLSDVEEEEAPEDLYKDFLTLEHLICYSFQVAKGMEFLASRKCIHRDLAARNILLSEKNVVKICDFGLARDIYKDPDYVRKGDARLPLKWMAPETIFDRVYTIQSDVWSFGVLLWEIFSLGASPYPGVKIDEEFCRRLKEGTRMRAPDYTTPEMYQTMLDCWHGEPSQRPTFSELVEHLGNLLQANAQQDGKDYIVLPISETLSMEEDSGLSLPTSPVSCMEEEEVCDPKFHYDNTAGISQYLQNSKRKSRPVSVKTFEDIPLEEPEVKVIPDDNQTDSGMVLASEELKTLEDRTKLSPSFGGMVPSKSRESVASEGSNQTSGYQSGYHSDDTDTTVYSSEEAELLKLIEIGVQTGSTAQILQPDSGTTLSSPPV
Assay: VEGFR2 kinase inhibition assay (ELISA-based, time-resolved fluorescence)
Format: biochemical
Conditions: 1 uM compound; 30 μM ATP
Procedure: Inhibition of Vascular Endothelial Growth Factor Receptor-2 Kinase Activity Assay were performed as described for trkA kinase below. The 96-well microtiter plate (FluoroNUNC Maxisorp) was coated with 40 μg/ml recombinant human phospholipase C-γ1/glutathione S-transferase fusion protein. Inhibition studies were performed in 100 μl assay mixtures containing 50 mM HEPES, pH 7.4, 30 μM ATP, 10 mM MnCl2, 0.1% BSA, 2% DMSO, and 1 μM of test compound. […]
Note to self: class = bucket of VEGFR-2 kinase % inhibition @ 1 uM, per low end: < 10%; middle: ≥ 10% and < 40%; high end: ≥ 40%

{"compound": "Cc1cc(C)c(C=C2C(=O)NN=C2c2cc(C)oc2C)[nH]1 [Compound 36]", "answer-label": "middle"}
{"compound": "Cc1cc(C)c(C=C2C(=O)NN=C2c2csc3ccccc23)[nH]1 [Compound 39]", "answer-label": "middle"}
{"compound": "Cn1cccc1C1=NNC(=O)C1=Cc1c[nH]c2ccc(F)cc12 [Compound 56]", "answer-label": "low end"}
{"compound": "Cc1nc[nH]c1C=C1C(=O)NN=C1c1ccco1 [Compound 53]", "answer-label": "middle"}
{"compound": "Cc1cc(C)c(C=C2C(=O)NN=C2c2ccn(C)c2)[nH]1 [Compound 23]", "answer-label": "low end"}
{"compound": "O=C1NN=C(c2ccoc2)C1=CC=C(c1ccccc1)c1ccccc1 [Compound 4]", "answer-label": "middle"}
{"compound": "O=C1NN=C(c2ccoc2)C1=Cc1c[nH]c2cccc(OCc3ccccc3)c12 [Compound 18]", "answer-label": "middle"}
{"compound": "O=C1NN=C(c2cc3ccccc3o2)C1=Cc1c[nH]c2ccccc12 [Compound 58]", "answer-label": "high end"}
{"compound": "Cc1cc(C)c(C=C2C(=O)NN=C2c2cccs2)[nH]1 [Compound 61]", "answer-label": "high end"}
{"compound": "CCc1c(C=C2C(=O)NN=C2c2ccoc2)[nH]c(C(=O)OCc2ccccc2)c1C [Compound 5]", "answer-label": "low end"}
{"compound": "Cc1cc(C)c(C=C2C(=O)NN=C2c2cccn2C)[nH]1 [Compound 55]", "answer-label": "middle"}
